target.under.test: T1, RXFP1 receptor (endogenous, on OVCAR5 cells) (UniProt Q9HBX9 1-757, limits assumed)
T1 sequence (looked up): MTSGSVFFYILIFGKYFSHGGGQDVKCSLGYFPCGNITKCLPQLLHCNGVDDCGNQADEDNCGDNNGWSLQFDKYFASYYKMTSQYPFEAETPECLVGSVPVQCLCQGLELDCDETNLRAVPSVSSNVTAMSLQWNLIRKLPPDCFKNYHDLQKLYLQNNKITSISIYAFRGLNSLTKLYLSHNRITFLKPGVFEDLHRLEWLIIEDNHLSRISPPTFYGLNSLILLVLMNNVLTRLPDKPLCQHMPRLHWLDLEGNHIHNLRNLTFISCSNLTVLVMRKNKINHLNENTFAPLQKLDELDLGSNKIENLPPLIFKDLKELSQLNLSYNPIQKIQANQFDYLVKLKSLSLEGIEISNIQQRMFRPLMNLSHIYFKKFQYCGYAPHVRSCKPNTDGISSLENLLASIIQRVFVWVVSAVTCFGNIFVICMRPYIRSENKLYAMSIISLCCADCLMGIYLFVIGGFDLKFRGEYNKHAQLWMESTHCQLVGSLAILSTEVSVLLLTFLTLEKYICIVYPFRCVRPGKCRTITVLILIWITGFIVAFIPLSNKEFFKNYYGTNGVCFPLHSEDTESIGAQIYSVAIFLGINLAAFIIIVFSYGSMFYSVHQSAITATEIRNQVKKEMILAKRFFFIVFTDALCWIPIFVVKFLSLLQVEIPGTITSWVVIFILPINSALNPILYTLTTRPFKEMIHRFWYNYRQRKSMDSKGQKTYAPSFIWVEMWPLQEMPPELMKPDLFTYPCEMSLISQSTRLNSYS
assay.info: cell-based or functional assay
Starred links: 1 amine or outer side, 2 acyl side, 3 side chain; linkers in the order of their positions; H or OH if unused. Non-standard residues stand in square brackets, D forms with d. Groups on a side chain read outwards from the residue. *: point of attachment. TTDS = 4-[3-[2-[2-(3-aminopropoxy)ethoxy]ethoxy]propylamino]-4-oxo-butanoyl; γGlu = O=C(O)[C@H](CCC(=O)[*:2])N[*:1]; Stearoyl = CCCCCCCCCCCCCCCCCC(=O)*; Palmitoyl = CCCCCCCCCCCCCCCC(=O)*; Aib = CC(C)(N)C(=O)O
measure: EMax, OVCAR 5 cells (cAMP) (%)

{"binder": "Ac-LEGREKVRAK(Ac)I[Aib][Aib]EGK([TTDS-TTDS-TTDS-γGlu-γGlu-γGlu-γGlu-Stearoyl])STWS[Aib]RKK(Ac)-NH2 [peptide of SEQ ID NO: 51]", "EMax, OVCAR 5 cells (cAMP) (%)": 98}
{"binder": "Ac-LEGREKVRAK(Ac)I[Aib][Aib]EGK([TTDS-TTDS-TTDS-γGlu-γGlu-γGlu-Palmitoyl])STFVRRAK(Ac)-NH2 [peptide of SEQ ID NO: 94]", "EMax, OVCAR 5 cells (cAMP) (%)": 88}

Origin of values: patent US20190233494A1
